Catalogue of log10 of IC50 values
# Test system: MOLM14 D835Y cells
# assay_explanation: MOLM14 D835Y cell viability assay (Cell Titer Glo)
# Type: cell-based
# experimental_conditions: 48 hours
Remember, log10 of IC50, in nM.

Worked cases, answers included:
>>> meas_value("COc1cc2ncc(-c3cccc(N[C@H]4CNC[C@@H]4F)n3)n2nc1C(C)(O)C(F)(F)F (single isomer, unassigned; slow-eluting) [Compound 135]")
2.59
>>> meas_value("COc1cc2ncc(-c3cccc(N[C@H]4CNCC[C@@H]4F)n3)n2nc1C(C)(O)C(F)(F)F (single isomer, unassigned; slow-eluting) [Compound 136]")
1.49
>>> meas_value("COc1cc2ncc(-c3cccc(N[C@@H]4CCCNC4)n3)n2nc1C(C)(O)C(F)(F)F (single isomer, unassigned) [Compound 131]")
1.84
>>> meas_value("COc1cc2ncc(-c3cccc(N[C@@H]4CCCNC4)n3)n2nc1C(C)(O)C(F)(F)F (single isomer, unassigned) [Compound 132]")
2.69
>>> meas_value("COc1cc2ncc(-c3cccc(N[C@H]4CNCC[C@@H]4F)n3)n2nc1C(C)(O)C(F)(F)F (single isomer, unassigned; fast-eluting) [Compound 134]")
2.39

Which value of log10 of IC50 has been reported for COc1cc2ncc(-c3cccc(N[C@H]4CNC[C@@H]4F)n3)n2nc1C(C)(O)C(F)(F)F (single isomer, unassigned; fast-eluting) [Compound 133] in the records?
1.93

Tell me the measured log10 of IC50 of COc1cc2ncc(-c3cccc(N[C@H]4CNCC[C@@H]4F)n3)n2nc1-c1cnn(C(F)F)c1 , please.
2.14
